test system: MCF7; assay: SRB antiproliferative assay, MCF7; format: cell-based, human; conditions: Homo sapiens, MCF7; SRB, 48 h; read-out: GI50 MCF7
The entries below come with measured GI50 values attached.
# output: bare number, implied unit µM

Below: 2 compounds and their reported GI50.
{"COMPOUND": "O=S(=O)(NCCCNc1ccnc2cc(C(F)(F)F)ccc12)c1ccc(Cl)cc1Cl [Compound 30]", "GI50 (µM)": 5.18}
{"COMPOUND": "O=S(=O)(c1ccc(-c2ccccc2)cc1)N1CCN(c2ccnc3cc(C(F)(F)F)ccc23)CC1 [Compound 9]", "GI50 (µM)": 14.8}

Measured GI50 of O=S(=O)(NCCCNc1ccnc2cc(Cl)ccc12)c1ccc(Cl)cc1 [Compound 19] : 4.31

Measured GI50 of O=S(=O)(c1ccc(-c2ccccc2)cc1)N1CCN(c2ccnc3cc(Cl)ccc23)CC1 [Compound 3] : 9.23

###

test system: MCF7; assay: SRB antiproliferative assay, MCF7; type: cell-based, human; conditions: Homo sapiens, MCF7; SRB, 48 h; read-out: GI50 MCF7
The entries below come with measured GI50 values attached.
Record the result as number plus unit.

{"STRUCTURE": "CS(=O)(=O)NCCCNc1ccnc2cc(Cl)ccc12", "GI50": "23.1 µM"}
{"STRUCTURE": "O=S(=O)(NCCCNc1ccnc2cc(Cl)ccc12)c1ccc(-c2ccccc2)cc1", "GI50": "2.47 µM"}

Please look at the following compound next.
Measured GI50 of O=S(=O)(NCCCNc1ccnc2cc(C(F)(F)F)ccc12)c1ccc(-c2ccccc2)cc1 : 3.6 µM

The reported measurements were obtained from patent US9975852B2.
